- System: HL-60
- method summary: NCI tumour cell line growth inhibition, 48 h
The source made the active and inactive calls. No stated cut-off is given here; in the data, active = GI50 up to about 1.1 µM and inactive = higher.
Reported GI50 values follow for various compounds

compound: CC1=NN(c2nc(N)nc(CSc3cc(Cl)c(C)cc3S(N)(=O)=O)n2)C(C)(C)C1
GI50: > 10 µM (inactive)

compound: CN(C)CCSC1=Nc2ccc(Cl)cc2C(c2ccccc2Cl)=NC1
GI50: 19.3 µM (inactive)

compound: C=C[C@@]1(C)CCC2(O)C(CCC3C2(C)CCC[C@@]3(C)COC(=O)CC(=O)OC)C1 (stereo not given in full)
GI50: 19.2 µM (inactive)

compound: N=C(N)NS(=O)(=O)c1ccc(Nc2c3ccccc3nc3c(C(=O)N4CCN(CCO)CC4)ccc(Cl)c23)cc1
GI50: > 100 µM (inactive)

compound: C=CC(=O)Nc1ccc(NC(=O)C=C)c2c1C(=O)c1ccccc1C2=O
GI50: 3.86 µM (inactive)

compound: COc1cc(C2c3cc4c(cc3[C@@H](NCCN3CCCCC3)C3COC(=O)[C@H]23)OCO4)cc(OC)c1O (stereo not given in full)
GI50: 0.0322 µM (active)

compound: C=C(C(=O)O)[C@@H]1C[C@@H](OC(C)=O)[C@]2(C)CC/C=C(\C)CCC[C@H](C)[C@H](O)[C@@H]1O2
GI50: 22.3 µM (inactive)

compound: C/C=C(\C)C(=O)OC1/C=C(\C)CC/C=C(\C)CC2OC(=O)C(C)(OC(C)=O)C12 (stereo not given)
GI50: 59.7 µM (inactive)

compound: CCNc1ncnc2sc(SCc3ccccc3)nc12
GI50: 16.6 µM (inactive)

compound: CC(=O)/N=C1\C=C(NC(C)=O)C(=O)c2ccccc21
GI50: 1.85 µM (inactive)

compound: Cc1ccccc1/N=N/c1c(-c2ccccc2)nn(C(=O)CC(=O)Nc2cccc(Cl)c2)c1-c1ccccc1
GI50: 17.3 µM (inactive)

compound: COc1cc2c(cc1OC)[C@H]1C(COC(=O)c3ccccc3)CS/C(=N/c3ccccc3)N1CC2 (stereo not given in full)
GI50: 5.31 µM (inactive)

compound: CCOc1cc(/C=C/C=C/C=C/c2ccc(N(C)C)cc2)[s+]c2ccccc12
GI50: 1.72 µM (inactive)

compound: Clc1ccc(-c2nc3cc(Cl)ccc3[nH]2)cc1
GI50: 39.9 µM (inactive)

compound: Cc1nnc2sc(Cc3cnc(N)s3)nn12
GI50: > 100 µM (inactive)

compound: CCN1CCCC(Nc2cc(C)nc(NC(=N)Nc3ccc(Cl)c(Cl)c3)n2)C1 (stereo not given)
GI50: 0.216 µM (active)

compound: O=C1CCCCC1=C(I)I
GI50: 4.49 µM (inactive)

compound: Cc1ccc(C(=O)C2CC3(CCC2(O)c2ccc(C)cc2)CC(=O)Nc2ccccc2C3=O)cc1 (stereo not given)
GI50: 10.5 µM (inactive)

compound: O=C(O)C(Sc1ccc(Cl)cc1)Sc1ccc(Cl)cc1
GI50: 33.8 µM (inactive)

compound: N/C(=N\c1ccc(Cl)cc1)NS(=O)(=O)c1c(C(F)(F)F)cccc1C(F)(F)F
GI50: 20 µM (inactive)

---

- Test system: OVCAR-3
- method summary: NCI tumour cell line growth inhibition, 48 h
The source made the active and inactive calls. Cut-off read from the data, not from the text of the source: active = GI50 up to about 1.1 µM and inactive = higher.
Reported GI50 values follow for various compounds
property: GI50

compound: COc1ccc(N2C(=O)C3c4[nH]c5ccccc5c4C4CCCCC4C3C2=O)cc1 (configuration not stated)
property: GI50
experimental value: > 100 µM (inactive)

compound: COc1ccccc1C(C1=C(O)COC1=O)c1cc2c(cc1OC(C)=O)OCO2 (configuration not stated)
property: GI50
experimental value: > 100 µM (inactive)

compound: O=S(O)CCCCSSCc1ccccc1CSSCCCCS(=O)O
property: GI50
experimental value: 10.5 µM (inactive)

compound: CN(C)Cc1cc(/N=N/c2ccc(Cl)cc2)ccc1O
property: GI50
experimental value: 11.5 µM (inactive)

compound: COc1cc(/C=C2/SC(c3ccccc3)N(Cc3ccccc3)C2=O)cc(OC)c1OC (configuration not stated)
property: GI50
experimental value: 33.7 µM (inactive)

compound: Cc1ccc2ccc(-c3ccccc3)c3c2c1C(=O)c1ccccc1C3=O
property: GI50
experimental value: 71.8 µM (inactive)

compound: C=C1c2nc3ccccc3n2C=C(c2ccccc2)N1c1ccc(OC)cc1
property: GI50
experimental value: 57.8 µM (inactive)

compound: Sc1nnc(-c2ccccc2)n1/N=C\c1ccc(-c2ccc(Cl)cc2)o1
property: GI50
experimental value: > 100 µM (inactive)

compound: CSC1=NC=CCN1C
property: GI50
experimental value: > 100 µM (inactive)

compound: O=[N+]([O-])c1ccc(N2N=C(c3ccc4ccccc4c3O)CC2c2ccc(Cl)cc2)c([N+](=O)[O-])c1 (configuration not stated)
property: GI50
experimental value: 24.8 µM (inactive)

compound: O=C1C2C3C=CC(C2C(=O)N1COP(=O)(O)O)C1C2C(=O)N(COP(=O)(O)O)C(=O)C2C31 (configuration not stated)
property: GI50
experimental value: > 100 µM (inactive)

compound: N=C(N)Nc1ccc(CC(N)NCC(=O)O)cc1 (configuration not stated)
property: GI50
experimental value: > 25 µM (inactive)

compound: Cc1cc(N=C2C=C(Br)C(=O)C(Br)=C2)cc(CN(CC(=O)O)CC(=O)O)c1O
property: GI50
experimental value: > 100 µM (inactive)

compound: COC(=O)C1=CC2CCCC1(O)C(C(C)=O)C2 (configuration not stated)
property: GI50
experimental value: > 100 µM (inactive)

compound: O=C(c1ccccc1)[C@H]1Nc2ccc(Cl)cc2C2c3ccccc3CC21 (some centres not stated)
property: GI50
experimental value: 21 µM (inactive)

compound: CCOC(=O)C(C(=O)c1ccccc1-c1ccccc1C(=O)O)=P(c1ccccc1)(c1ccccc1)c1ccccc1
property: GI50
experimental value: 25.1 µM (inactive)

compound: COc1cc(-c2cc(=O)c3cc(C)c(C)c(C(=O)O)c3o2)cc(OC)c1OC
property: GI50
experimental value: > 100 µM (inactive)

compound: C/C=C(\C)C(=O)OC1/C=C(\C)CC/C=C(\C)CC2OC(=O)C(C)(OC(C)=O)C12 (configuration not stated)
property: GI50
experimental value: > 100 µM (inactive)

compound: CCCCCCCCC(=O)CCCCCCCCC(=O)O
property: GI50
experimental value: 18.8 µM (inactive)

compound: CN(C)c1ccc(/C=C2\N=C(c3ccc(N)cc3)OC2=O)cc1
property: GI50
experimental value: > 100 µM (inactive)

compound: COc1ccc(/C=C2/CCS(=O)(=O)c3ccc(C)cc3C2=O)cc1OC
property: GI50
experimental value: 28.1 µM (inactive)

compound: CNC(=O)CN(CC(N)=O)C(=O)NC
property: GI50
experimental value: > 100 µM (inactive)
